- test-target: human KDR (VEGFR2) on cells (human, UniProt P35968 20-1356)
- Sequence (P35968 20-1356): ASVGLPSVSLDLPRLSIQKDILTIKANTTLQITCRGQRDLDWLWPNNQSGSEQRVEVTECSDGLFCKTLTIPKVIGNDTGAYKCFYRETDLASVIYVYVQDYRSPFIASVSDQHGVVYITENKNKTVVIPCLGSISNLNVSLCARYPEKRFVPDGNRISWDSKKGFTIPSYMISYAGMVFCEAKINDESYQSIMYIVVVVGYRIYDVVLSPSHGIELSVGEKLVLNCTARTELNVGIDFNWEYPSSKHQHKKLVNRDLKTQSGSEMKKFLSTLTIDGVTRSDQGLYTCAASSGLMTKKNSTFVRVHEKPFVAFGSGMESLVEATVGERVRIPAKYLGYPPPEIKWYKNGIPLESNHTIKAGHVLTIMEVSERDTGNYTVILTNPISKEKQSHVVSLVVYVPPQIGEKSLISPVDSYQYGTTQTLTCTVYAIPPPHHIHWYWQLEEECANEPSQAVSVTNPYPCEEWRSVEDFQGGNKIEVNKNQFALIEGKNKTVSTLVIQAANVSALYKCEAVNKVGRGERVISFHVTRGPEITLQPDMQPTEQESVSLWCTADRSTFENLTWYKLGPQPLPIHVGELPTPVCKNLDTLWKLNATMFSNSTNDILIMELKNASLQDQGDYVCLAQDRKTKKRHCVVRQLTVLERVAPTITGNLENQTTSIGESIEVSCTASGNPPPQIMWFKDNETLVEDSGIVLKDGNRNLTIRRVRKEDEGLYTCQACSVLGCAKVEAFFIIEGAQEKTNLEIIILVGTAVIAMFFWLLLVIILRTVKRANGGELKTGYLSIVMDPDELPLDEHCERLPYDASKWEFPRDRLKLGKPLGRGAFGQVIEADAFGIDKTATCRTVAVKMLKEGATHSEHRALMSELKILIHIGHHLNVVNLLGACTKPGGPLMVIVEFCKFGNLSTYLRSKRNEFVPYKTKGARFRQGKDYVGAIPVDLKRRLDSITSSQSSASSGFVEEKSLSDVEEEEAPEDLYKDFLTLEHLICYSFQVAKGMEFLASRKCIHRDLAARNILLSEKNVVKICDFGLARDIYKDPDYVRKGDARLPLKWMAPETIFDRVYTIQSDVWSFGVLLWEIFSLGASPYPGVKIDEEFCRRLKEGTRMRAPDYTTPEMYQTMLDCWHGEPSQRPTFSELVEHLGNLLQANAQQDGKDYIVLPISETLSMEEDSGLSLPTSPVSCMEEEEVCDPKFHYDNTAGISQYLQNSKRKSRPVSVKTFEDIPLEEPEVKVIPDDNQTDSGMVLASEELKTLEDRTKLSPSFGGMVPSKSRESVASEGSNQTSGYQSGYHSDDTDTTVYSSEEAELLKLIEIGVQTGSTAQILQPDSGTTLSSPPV
- assay-info: cell-based or functional assay
Recorded HUVEC survival (n = 2) 1:20 dilution of supernatant (RLU) by entry
Answer with a number only, understood to be in RLU.

{"binder": "anti-KDR monoclonal antibody 29A3 (antibody, V domains shown, Fully human mAb from XenoMouse (IgG2 or IgG4 strain); hybridoma supernatant) VH: QVQLQESGPGLVKPSETLSLTCTVSGGSISSYFWSWIRQPAGKGLEWIGRIYFSGRTNYNPSLKSRVTMSVETSKNQFSLKLNSVTAADTAVYYCARDGGWNYDVAFDYWGQGTLVTVSS VL: QAVLTQPSSLSASPGASASLTCTLRSGINVGTYRIYWYQQKPGSPPQYLLRYKSDSDQLQGSGVPSRFSGSKDASANAGILLISGLQSEDEADYYCMVWHSNTWVFGGGTKLTVL", "recorded-result": 2450}
{"binder": "anti-KDR monoclonal antibody 1G6 (antibody, V domains shown, Fully human mAb from XenoMouse (IgG2 or IgG4 strain); tested here as hybridoma supernatant) VH: EVQLLESGGGLVQPGGSLRLSCAASGFTFSSYAMSWVRQAPGKGLEWVSAISGGGGNTYYADSVKGRFTISRDNSKNTLYLQMNSLRAEDTAVYYCSKVATDYWGQGTLVTVSS VL: QPVLTQSSSASASLGSSVKLTCTLSSGHSSYIIAWHQQQPGKAPRYLMKLEGSGSYNKGSGVPDRFSGSSSGADRYLTISNLQFEDEADYYCETWDSYTVVFGGGTKLTVL", "recorded-result": 10200}
{"binder": "anti-KDR monoclonal antibody 30D7 (antibody, V domains shown, Fully human mAb from XenoMouse (IgG2 or IgG4 strain); hybridoma supernatant) VH: QVPLVESGGGVVQPGRSLRLSCAASGFTFSSYGMHWVRQAPGKGLEWVAVIWYDGSNKYYADSVKGRFTISRDNSKNTLYLQMNSLRAEDTAVYYCARGVTMVRGVIIARYYYGLDVWGQGTTVTVSS VL: DIVMTQTPLSSPVTLGQPASISCRSSQSLVHSDGNTYLSWLQQRPGQPPRLLIYKISNRFFGVPDRFSGSGAGTDFTLKIGRVEAEDVGLYYCMQSTQFPLTFGGGTKVEIK", "recorded-result": 2520}
{"binder": "anti-KDR monoclonal antibody 24B3 (antibody, V domains shown, Fully human mAb from XenoMouse (IgG2 or IgG4 strain); hybridoma supernatant) VH: EVQLVESGGGLVKPGGSLRLSCAASGFTFSTYSMNWVRQAPGKGLEWVSFISGRSSYIYYADSVKGRFTISRDNAKNSLYLQMNSLRAEDTAVYYCSKDDWFEELWGQGTLVTVSS VL: DIQMTQSPSSLSASVGDRVTITCRASQGIRSDLGWYQQKPGKAPKRLIYATSSLQSGVPSRFSGSGSGTEFTLTISSLQPEDFATYYCLQHNRYPWTFGQGTKVEIK", "recorded-result": 2460}
{"binder": "anti-KDR monoclonal antibody 22B8 (antibody, V domains shown, Fully human mAb from XenoMouse (IgG2 or IgG4 strain); hybridoma supernatant) VH: QLQLQESGPGLVKPSETLSLTCTVSGGSISSRYYYWGWVRQPPGKGLEWIGTIYYSGHTYYNPSLKTRVTISVDTSKNQFSLKLISVTAADTAVYYCATQQLVLYYFDFWGQGTLVTVSS VL: EIVLTQSPGTLSLSPGERAALSCRASQSISSSYLAWYQQRPGQAPRLLIYGASSRATGIPDRFNGSGSGTDFTLTISRLEPEDFAVYYCQQFGSSITFGQGTRLEIK", "recorded-result": 3260}
{"binder": "anti-KDR monoclonal antibody 21H9 (antibody, V domains shown, Fully human mAb from XenoMouse (IgG2 or IgG4 strain); hybridoma supernatant) VH: QVPLVESGGGVVQPGRSLRLSCAASGFTFSSYGMHWVRQAPGKGLEWVAVIWYDGSNKYYADSVQGRFTISRDNSKNTLYLQMNSLRAEDTAVYYCARGVTMVRGLIIARYYYGLDVWGQGTTVTVSS VL: DIVMTQTPLSSPVTFGQPASISCRSSQSLVHSDGNTYLSWLQQRPGQPPRLLIYKISNRFFGVPDRFSGSGAGTDFTLKISRVEAEDVGLYYCMQSTQFPLTFGGGTKVEIK", "recorded-result": 10300}
{"binder": "anti-KDR monoclonal antibody 32F4 (antibody, V domains shown, Fully human mAb from XenoMouse (IgG2 or IgG4 strain); hybridoma supernatant) VH: QLQLQESGPGLVKPSGTLSLSCTVSGGSISSRSDYWGWIRQPPGKGLEWIGTIYYSGNTFYNPSLKSRVTISVDTSKKQFSLKLSSVTAADTAVYYCARQQLVLYYFDYWGQGTLVTVSS VL: EIVLTQSPGTLSLSPGERATLSCRTSQSVSSSYLAWYQQKPGQAPRLLIYGASSRATGVPDRFSGSGSGTDFSLTISRLEPEDFAVYYCQQYGSSPPLTFGGGTKVEIK", "recorded-result": 5030}
{"binder": "anti-KDR monoclonal antibody 21A1 (antibody, V domains shown, Fully human mAb from XenoMouse (IgG2 or IgG4 strain); hybridoma supernatant) VH: QVQLVESGGGLVKPGGSLRLSCAASGFTFSDYYMSWIRQAPGKGLEWVSYISNSGITIYYADSVKGRFTISRDNAKNSLYLQMNSLRAGDTAVYYCAREEWYSSRWYRNFDYWGQGTLVTVSS VL: DIQMTQFSSSLSASVGDRVTITCRASQSISRYLNWYQQKPGKAPKLLIYAASSLQSGVPSRFNGSGSGTDFTLTISSLQPEDFATYYCQQSYSAPLTFGGGTKVEIK", "recorded-result": 2670}

Query: Kindly indicate its recorded HUVEC survival (n = 2) 1:20 dilution of supernatant (RLU). Item: anti-KDR monoclonal antibody 33B1 (antibody, V domains shown, Fully human mAb from XenoMouse (IgG2 or IgG4 strain); hybridoma supernatant) VH: EVQLVESGGGLVKPGGSLRLSCAASGFTFSSYTMNWVRQAPGKGLEWVSFIDSRSSYIYYADSVKGRFTISRDNAKNSLYLQMNSLRAEDTAVYYCSKDDWFEELWGQGTLVTVSS VL: DIQMTQSPSSLSASVGDRVTITCRASQGIRNDLGWYQQKPGKAPKRLIYATSSLQSGVPSRFSGSGSGTEFTLTISSLQPEDFATYYCLHHNSFPWTFGQGTKVEIK
Result: 12500

Query: Please indicate HUVEC survival (n = 2) 1:20 dilution of supernatant (RLU) recorded for anti-KDR monoclonal antibody 33E1 (antibody, V domains shown, Fully human mAb from XenoMouse (IgG2 or IgG4 strain); hybridoma supernatant) VH: QVQLQESGPGLVKPSQTLSLTCTVSGGSISSGDHYWSWIRQHPGKGLEWIGHIYYSGSTDYNPSLKSRVTISVDTSKNHFSLKLNSVTAADTAVYYCARTNSSSWSDWYFDLWGRGTLVTVSS VL: DIVMTQSPDSLAVSLGERATINCKSSQSILYSSNNKNYLAWYQRKPGQPPILLIHWASTRESGVPDRFSGSGSRTDFTLTISSLQAEDVAVYYCQQYFITPWTFGQGTKVEIK
Result: 2310

Measured values drawn from patent US20100260765A1 for this set.
